The measurements presented in this section are drawn from ChEMBL document CHEMBL1149209.

Biological target: Histamine H1 receptor (Homo sapiens, UniProt P35367)
Sequence (P35367 whole entry): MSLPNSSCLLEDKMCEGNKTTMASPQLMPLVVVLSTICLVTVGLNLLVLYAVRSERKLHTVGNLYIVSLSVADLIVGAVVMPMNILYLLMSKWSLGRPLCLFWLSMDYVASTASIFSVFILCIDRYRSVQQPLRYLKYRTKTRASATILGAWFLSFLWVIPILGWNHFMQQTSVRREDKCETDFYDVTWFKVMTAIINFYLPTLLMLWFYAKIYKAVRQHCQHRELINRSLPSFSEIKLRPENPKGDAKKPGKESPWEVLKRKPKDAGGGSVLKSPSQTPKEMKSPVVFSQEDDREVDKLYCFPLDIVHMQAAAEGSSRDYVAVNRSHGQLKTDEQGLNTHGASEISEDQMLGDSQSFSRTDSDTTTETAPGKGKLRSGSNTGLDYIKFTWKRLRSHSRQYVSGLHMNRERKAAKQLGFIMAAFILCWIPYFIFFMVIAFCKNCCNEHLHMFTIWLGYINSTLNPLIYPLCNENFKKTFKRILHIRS
Observed Property: pKi
Answers are plain numbers, as −log10 of the molar value.

Below are 3 molecules. Give each one its pKi.
1. c1ccc(C2CCN(CC3C[C@@H]4c5ccccc5Cc5ccccc5[C@H]4O3)CC2)cc1 (stereo partly drawn)
2. CN(C)C[C@@H]1C[C@@H]2c3ccccc3Cc3ccccc3[C@H]2O1
3. CN(C)CC1C[C@@H]2c3ccccc3Cc3ccccc3[C@H]2O1 (stereo partly drawn)

Out:
7.53
9.20
9.15

* * *

System: Rattus norvegicus
Test: Effective dose required for antagonistic activity in mCPP challenge test in male wistar rats after subcutaneous administration
Format: functional
Details: sc
Observed Property: ED50 (mg/kg)
Answers are plain numbers, in mg/kg.

Look over these answered cases.
[
  {
    "Molecule": "CN(C)C[C@@H]1C[C@@H]2c3ccccc3Cc3ccccc3N2O1",
    "Observed Property": "ED50",
    "Recorded Measurement": 0.04
  },
  {
    "Molecule": "CNC[C@@H]1CC2c3ccccc3Cc3ccccc3C2O1 (single isomer, unassigned)",
    "Observed Property": "ED50",
    "Recorded Measurement": 2.2
  }
]

In: Consider the molecule "CN(C)C[C@@H]1C[C@@H]2c3ccccc3Cc3ccccc3[C@H]2O1" tested on Rattus norvegicus; state its ED50.
Out: 0.06
